assayProcedure: Oral absorption test in rats under a fed condition (plasma concentration)
Format: in vivo
testContext: rat, 30 mg/kg, medium PEG 400
metric: Cmax (ng/mL)

INSERT INTO assay_data (molecule, uom, measuredresult) VALUES
  ('CC(C)c1cccc(C(C)C)c1NC(=O)CN1CCN(CCSc2nc3cccc(C(F)(F)F)c3o2)CC1 [Example 85]', 'ng/mL', 17.6);

* * *

assayProcedure: Oral absorption test in rats under a fed condition (plasma concentration)
Assay type: in vivo
testContext: rat, 30 mg/kg, medium PEG 400
metric: AUC(0-inf) (ng·h/mL)

INSERT INTO measurements (testsmiles, metric, uom, measuredresult) VALUES
  ('CC(C)c1cccc(C(C)C)c1NC(=O)CN1CCN(CCSc2nc3cccc(C(F)(F)F)c3o2)CC1', 'AUC(0-inf)', 'ng·h/mL', 71.8);

* * *

assayProcedure: Oral absorption test in rats under a fed condition (plasma concentration)
Type: in vivo
testContext: rat, 30 mg/kg, medium 0.05N (Aq HCl)
metric: Cmax (ng/mL)

INSERT INTO results (compound, measuredresult) VALUES
  ('CC(C)c1cc(O)cc(C(C)C)c1NC(=O)CN1CCN(CCSc2nc3ccccc3o2)CC1 [Example 72]', 470),
  ('CC(C)c1cccc(C(C)C)c1NC(=O)CN1CCN(CCSc2nc3ccccc3o2)CC1 [Example 1]', 110);

* * *

assayTarget: ACAT (Mus musculus, UniProt Q61263)
Construct: J774 cells or HepG2 cells were sown on a 24-well plate; endogenous in cells; host or cells: J774 cells
Sequence (Q61263 whole entry): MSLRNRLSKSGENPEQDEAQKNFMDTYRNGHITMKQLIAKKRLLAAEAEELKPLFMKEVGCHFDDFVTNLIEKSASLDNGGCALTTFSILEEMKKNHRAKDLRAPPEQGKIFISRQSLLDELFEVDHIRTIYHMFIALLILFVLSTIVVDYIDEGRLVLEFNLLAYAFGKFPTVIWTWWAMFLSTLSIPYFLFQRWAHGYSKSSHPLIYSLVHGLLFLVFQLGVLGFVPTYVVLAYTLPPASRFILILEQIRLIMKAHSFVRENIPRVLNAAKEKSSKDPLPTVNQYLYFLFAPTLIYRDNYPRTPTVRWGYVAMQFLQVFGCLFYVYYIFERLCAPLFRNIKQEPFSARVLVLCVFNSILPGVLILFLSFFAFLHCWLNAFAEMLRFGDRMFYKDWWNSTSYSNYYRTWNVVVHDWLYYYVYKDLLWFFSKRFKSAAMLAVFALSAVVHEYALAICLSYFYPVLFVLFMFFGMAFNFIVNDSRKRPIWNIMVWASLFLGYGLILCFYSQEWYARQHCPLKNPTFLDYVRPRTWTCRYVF
assayProcedure: ACAT inhibitory activity test in J774 cells (anti-foaming action)
Type: cell-based
testContext: J774 cells, 25-hydroxycholesterol 10 µg/mL, 18 hours, cholesterol ester per protein
metric: IC50 (nM)

INSERT INTO results (testsmiles, metric, measuredresult) VALUES
  ('CC(C)c1cc(O)cc(C(C)C)c1NC(=O)CN1CCN(CCSc2nc3ccccc3o2)CC1', 'IC50', 130),
  ('CC(C)c1cccc(C(C)C)c1NC(=O)CN1CCN(CCSc2nc3cccc(C(F)(F)F)c3o2)CC1', 'IC50', 19),
  ('COc1cc(C(C)C)c(NC(=O)CN2CCN(CCSc3nc4ccccc4o3)CC2)c(C(C)C)c1', 'IC50', 100),
  ('CC(C)c1ccc(O)c(C(C)C)c1NC(=O)CN1CCN(CCSc2nc3cccc(C(F)(F)F)c3o2)CC1', 'IC50', 460),
  ('CCOCCOc1cc(C(C)C)c(NC(=O)CN2CCN(CCSc3nc4ccccc4o3)CC2)c(C(C)C)c1', 'IC50', 14);

* * *

assayProcedure: Oral absorption test in rats under a fed condition (plasma concentration)
Type: in vivo
testContext: rat, plasma, po, 30 mg/kg, rats, fed, oral 30 mg/kg, medium 0.5% MC Suspension
metric: Cmax (ng/mL)

INSERT INTO measurements (testsmiles, metric, measuredresult) VALUES
  ('CC(C)c1cc(O)cc(C(C)C)c1NC(=O)CN1CCN(CCSc2nc3cccc(C(F)(F)F)c3o2)CC1.Cl', 'Cmax', 167);

* * *

assayProcedure: Oral absorption test in rats under a fed condition (plasma concentration)
Format: in vivo
testContext: rat, 30 mg/kg, medium PEG 400:DMSO = 5:1
metric: AUC(0-inf) (ng·h/mL)

INSERT INTO assay_data (compound, measuredresult) VALUES
  ('CCOCCOc1cc(C(C)C)c(NC(=O)CN2CCN(CCSc3nc4ccccc4o3)CC2)c(C(C)C)c1 [Example 78]', 29.8);

meta.source: patent EP1431294A1
